- Test system: HCT-15 colon
- protocol-description: NCI tumour cell line growth inhibition, 48 h
molecules and their reported TGI
reported-endpoint: TGI

> print(dat)
                                   molecule     result
1  COc1ccc2c3c1O[C@H]1C(=O)C=CC4(n5[nH]c(=O)n(-c6ccccc6)c5=O)C(C2)N(C)CCC314 (some centres undefined)   > 100 µM
2                CO/C(N)=C(\C#N)N=Cc1cccnc1   > 100 µM
3  O=[N+]([O-])c1ccc(N=Nc2c(O)[nH]c3ccc(Br)cc23)cc1  > 74.3 µM
4  CCC(=C/[C@H](C)C/C=C/C(C)=C/[C@@H](C)C(=O)[C@@H](C)[C@H](O)[C@@H](C)CC)/C=C/[C@@H]1OC(=O)C=C[C@@H]1C   0.409 µM
5            Cc1cc(I)cc(CN(C)CCN2CCOCC2)c1O   > 100 µM
6  CCOC(=O)N1C(=O)C2C3C=CC(C2C1=O)C1C2C(=O)N(C(=O)OCC)C(=O)C2C31 (centres undefined)  > 67.2 µM
7  O=c1ccn(C2OC(COC3CCCCO3)C(OC3CCCCO3)C2OC2CCCCO2)c(=O)n1-c1ccccc1 (centres undefined)   > 100 µM
8  CCOc1ccc(NC(=O)/C(=N\N)C(C(=O)OC)c2nc3ccc(Cl)cc3[nH]c2=O)cc1 (centres undefined)   > 100 µM
9  CSc1nc(SC)c2cnn(CC3CO3)c2n1 (centres undefined)  > 61.4 µM
